PROTOCOL_DETAILS: chemical genetic growth profiling, strain panel (AID 1159580);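 also: tested at 20 µM; growth read once vehicle control cultures reached saturation at 30 °C; lower values mean less growth of the strain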
STUDY_CONDITIONS: S. cerevisiae deletion strains, growth OD, locus YNL298W, strain CLA4
About 2,000 (36%) of roughly 5,500 compounds were called active. Another 18% or so got no clear call; they are omitted. Rule as the data show it: active = normalized growth mostly below about 0.91 (no sharp cut-off); inconclusive = no clear call, values can overlap the other calls; inactive = mostly above about 0.92. This is one part of the list.
Pick from active, inactive when you respond.

Solved cases (10 shown):
>  <MOLECULE>
COc1ccc(-c2coc3cc(O)ccc3c2=O)c(OC)c1

>  <DISCRETE_LABEL>
inactive

$$$$
>  <MOLECULE>
CC[C@@]1(O)C[C@H](O[C@H]2C[C@H](N(C)C)[C@H](O)[C@H](C)O2)c2c(cc3c(c2O)C(=O)c2c(O)ccc(O)c2C3=O)[C@H]1C(=O)OC

>  <DISCRETE_LABEL>
inactive

$$$$
>  <MOLECULE>
CCN(CC)Cc1ccc(Nc2ccnc3cc(Cl)ccc23)cc1O

>  <DISCRETE_LABEL>
inactive

$$$$
>  <MOLECULE>
Oc1cc(O)c2c(c1)OC(c1cc(O)c(O)c(O)c1)C(O)C2c1c(O)cc(O)c2c1OC(c1cc(O)c(O)c(O)c1)C(O)C2c1c(O)cc(O)c2c1OC(c1cc(O)c(O)c(O)c1)C(O)C2 (configuration not stated)

>  <DISCRETE_LABEL>
inactive

$$$$
>  <MOLECULE>
O=C(Oc1cc(OC(=O)c2ccccc2)c2c(c1)O[C@H](c1ccc(OC(=O)c3ccccc3)c(OC(=O)c3ccccc3)c1)[C@@H](OC(=O)c1ccccc1)C2)c1ccccc1

>  <DISCRETE_LABEL>
inactive

$$$$
>  <MOLECULE>
COc1c(N2CCNC(C)C2)c(F)cc2c(=O)c(C(=O)O)cn(C3CC3)c12 (configuration not stated)

>  <DISCRETE_LABEL>
inactive

$$$$
>  <MOLECULE>
CCN1CCCC(OC(=O)C(c2ccccc2)c2ccccc2)C1 (configuration not stated)

>  <DISCRETE_LABEL>
inactive

$$$$
>  <MOLECULE>
O=C(O)CCCc1ccc(N(CCCl)CCCl)cc1

>  <DISCRETE_LABEL>
active

$$$$
>  <MOLECULE>
CCCCCCC(C)OC(=O)COc1cc(Cl)c(Cl)cc1Cl (configuration not stated)

>  <DISCRETE_LABEL>
inactive

$$$$
>  <MOLECULE>
O=C(O[C@@H]1Cc2c(O)cc(O)cc2O[C@@H]1c1ccc(O)c(O)c1)c1cc(O)c(O)c(O)c1

>  <DISCRETE_LABEL>
inactive

$$$$

Prompt line: What call does the record list for "COc1ccc([C@H]2Oc3c(I)c(OC)cc(OC)c3C[C@@H]2O)cc1OC" ?
Response line: inactive

Prompt line: What call does the record list for C=C[C@@](C)(O)CCC1C(=C)C[C@H](OC(C)=O)C2C(C)(C)CCCC12C (some centres not stated) ?
Response line: inactive

Prompt line: What call does the record list for "CN1CC(=O)N=C1N" ?
Response line: inactive

Prompt line: What call does the record list for CCC1(O)CC(OC2CC(N(C)C)C(OC3CC(O)C(OC4CCC(=O)C(C)O4)C(C)O3)C(C)O2)c2c(cc3c(c2O)C(=O)c2c(O)cccc2C3=O)C1C(=O)OC (configuration not stated) ?
Response line: inactive

Prompt line: What call does the record list for "NCCCS(=O)(=O)O" ?
Response line: inactive

Prompt line: What call does the record list for "O=C1c2ccc(O)cc2O[C@H](c2cc(O)c(O)c(O)c2)[C@H]1O" ?
Response line: inactive

Prompt line: What call does the record list for "CN1C2C[C@H](OC(=O)[C@H](CO)c3ccccc3)C[C@H]1[C@@H](O)C2" ?
Response line: inactive
